# tgt: T1, AflR 15-69 (Aspergillus flavus, UniProt P41765 15-69)
# T1 sequence: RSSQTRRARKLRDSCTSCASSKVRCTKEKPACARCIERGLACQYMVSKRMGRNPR
# method: FCS
quantity kind: pKd
Scale explanation: pKd corresponds to minus log10 of a concentration expressed in moles per litre.

Reported pKd, binder ver1 (dsDNA) DNA 1: TCAGATATTTCGGTCTCCGAGGAAAGAT DNA 2: ATCTTTCCTCGGAGACCGAAATATCTGA : ____
5.82
